TEST: CCTE_Shafer_MEA_dev_AB: CCTE's Alamar Blue Assay for Cytotoxicity in the Neural Network Formation Assay, Shafer Lab (AID 2284083);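 note: resazurin reduction fluorescence as viability of cultured neurons; twelve days of exposure from plating with re-dosing on DIV 5 and 9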
Inconclusive results are not listed. The source made the active and inactive calls. Rule for the calls: active = hit-call score of the fitted dose curve at least 0.9, where 1 is the maximum; inconclusive = response in the unintended direction; inactive = score below 0.9.
Valid outcomes are listed here; reply with one: active, inactive

Use these answered entries as a reference point.
What did this assay record as the result for O=C(Cl)C(F)(F)C(F)(F)C(F)(F)C(=O)Cl ?
inactive

What did this assay record as the result for NNC(=O)c1ccncc1 ?
inactive

What did this assay record as the result for C[C@]12C=CC(=O)C=C1CC[C@H]1[C@@H]3C[C@@H](O)[C@](O)(C(=O)CO)[C@@]3(C)C[C@H](O)[C@@]12F ?
inactive

Next:
What did this assay record as the result for Cn1cc[nH]c1=S ?
inactive

What did this assay record as the result for OC(Cn1cncn1)(Cn1cncn1)c1ccc(F)cc1F ?
inactive

What did this assay record as the result for OC(O)(C(F)C(O)(O)C(F)(F)F)C(F)(F)F ?
inactive

What did this assay record as the result for COc1cc2c(c(OC)c1OC)-c1ccc(OC)c(=O)cc1[C@@H](NC(C)=O)CC2 ?
active

====

TEST: BSK_SAg_PBMCCytotoxicity: PBMC Cytotoxicity Assessment in the BioMAP Diversity Plus: SAg Assay (AID 2283093);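 note: PBMC viability measured as Alamar Blue reduction fluorescence at 546/580 nm; fitted both ways against DMSO so a hit may be loss or gain of signal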
CONDITION_NOTES: primary human HUVEC with PBMC
Calls of active or inactive are those of the source. How the source made its calls: active means hit-call score of the fitted dose curve at least 0.9, where 1 is the maximum; inactive means score below 0.9.
Valid outcomes are listed here; reply with one: active, inactive

What did this assay record as the result for CCCCCCCCCCCCCCO ?
active

What did this assay record as the result for NNC(=O)c1ccncc1 ?
active

What did this assay record as the result for C[C@@H](Oc1ccc(CNC(=O)c2cccnc2Oc2ccc3c(c2)OCO3)c(F)c1)C(=O)O ?
inactive

What did this assay record as the result for O=C(O)c1cccc(C[C@@H]2COc3ccc(OCc4nc5cc(F)ccc5s4)cc3[C@@H]2O)c1 ?
inactive

What did this assay record as the result for CCCC(CCC)C(=O)O ?
inactive

What did this assay record as the result for CC(=O)c1ccccc1 ?
inactive

What did this assay record as the result for CCCCOC(=O)c1ccccc1 ?
inactive

What did this assay record as the result for OC(O)(C(F)C(O)(O)C(F)(F)F)C(F)(F)F ?
inactive

What did this assay record as the result for c1ccc2c(c1)-c1cccc3c1c-2cc1ccccc13 ?
inactive

What did this assay record as the result for OCC(CO)(CO)CO ?
inactive

What did this assay record as the result for CC1(C)C(=O)N(Cl)C(=O)N1Cl ?
inactive

What did this assay record as the result for OC[C@H]1O[C@@H]2O[C@H]3[C@H](O)[C@@H](O)[C@@H](O[C@H]4[C@H](O)[C@@H](O)[C@@H](O[C@H]5[C@H](O)[C@@H](O)[C@@H](O[C@H]6[C@H](O)[C@@H](O)[C@@H](O[C@H]7[C@H](O)[C@@H](O)[C@@H](O[C@H]1[C@H](O)[C@H]2O)O[C@@H]7CO)O[C@@H]6CO)O[C@@H]5CO)O[C@@H]4CO)O[C@@H]3CO ?
inactive

What did this assay record as the result for CCOC(N)=O ?
inactive

What did this assay record as the result for OC(Cn1cncn1)(Cn1cncn1)c1ccc(F)cc1F ?
inactive

What did this assay record as the result for OCc1c[nH]c2ccccc12 ?
inactive

What did this assay record as the result for CC[C@H](C)C(=O)O[C@H]1C[C@H](O)C=C2C=C[C@H](C)[C@H](CC[C@@H](O)C[C@@H](O)CC(=O)O)[C@H]21 ?
inactive

What did this assay record as the result for O=C(Cl)C(F)(F)C(F)(F)C(F)(F)C(=O)Cl ?
inactive

What did this assay record as the result for CCCOc1ccc(S(=O)(=O)N2CCN(CC)CC2)cc1-c1nc2c(CC)n(Cc3ccccn3)nc2c(=O)[nH]1 ?
inactive

What did this assay record as the result for S=P(N1CC1)(N1CC1)N1CC1 ?
inactive

What did this assay record as the result for CNC(C)=O ?
inactive

What did this assay record as the result for O=S(=O)(O)c1ccc(N=Nc2c(O)ccc3cc(S(=O)(=O)O)ccc23)cc1 ?
inactive

What did this assay record as the result for O=S(=O)(O)CCC(F)(F)C(F)(F)C(F)(F)C(F)(F)C(F)(F)C(F)(F)F ?
inactive

What did this assay record as the result for O=C(O)c1cccc(C(=O)O)c1 ?
inactive

Where do the numbers come from? From PubChem BioAssay (EPA / NIEHS).
